assay: amyloid nucleation score (Sup35N fusion, yeast selection) (log enrichment); library NNK3; higher = more nucleation; inactive = no reads after selection;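 also: zero at mode of non-aggregating sequences after 7 days selection at 30°C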
Measurement kind: amyloid nucleation score

1. EYSLTLPYFVGSALPPQNTC | inactive
2. VRMQLMWCGP | inactive
3. NLCVMPRTTGPLS | inactive
4. FLDDLTLVHGRSETKKNL | inactive
5. FVVLLGFYHLASQDAYRGAL | 1.09
6. WTKECISIGRTWIYRRVGRG | 0
7. VASVWLDIPMYLFSQLRTKT | inactive
8. RRQLLVGIP | inactive
9. NPRTRFILNLPVFPSYHEHP | inactive
10. TARPSNKMNHRECCTNKFFP | inactive
11. VCFNYDLFYMIRMGFEAVHI | inactive
12. IARFGVKSVGWSFAENMSST | inactive
13. PCMNGVASFWNCGIKIFGSF | inactive
14. VYFFSGLGTCD | inactive
15. SFMYVCNLLLSSWSCP | 1.83
16. AVFSKGISCGLH | -0.434
17. SGKDIALMVHCVTVMWDQAY | inactive

----------
assay: amyloid nucleation score (Sup35N fusion, yeast selection) (log enrichment); library NNK2; higher = more nucleation; inactive = no reads after selection
Measurement kind: amyloid nucleation score

1) YFIAASYCDLTYLKTIDWTG | 2.76
2) LCFKLMNSKSWMRIQTAWTL | 0.384
3) TSHVGL | -1.39
4) PLGYGMGLRGLFGLLDSYFG | 0.19
5) LVTLFESGFFRRLTSMDGLF | 0.115
6) LVFRMQHSLTHGLLSEPGNR | 2.28
7) EGNNCW | 0.22
8) CGNNCTQYRHDWWGGMKLRD | 2.38
9) QFLSYCFWIGNPLVNFINAN | 5.87
10) IFRCRYTSGRFNAALSCC | -1.44
11) FWRKVCVDDRTT | -0.121
12) FFESCRLVNFELLVLSFFIG | -0.527
13) LPGMNTIILD | 2.17
14) SVFLSKDIKGVNQCGGLWLS | 0.296
15) MYWFGTVHQFRKFSENHRMF | 0.721
16) LQVVKKSNA | 3.61
17) FEIDCIKIVCKASYHGLSGT | 2.99
18) LAPLDLSLVFWNTRNVLVL | 0.746
19) CAPDVQWFSKIAFE | 1.1
20) KRVFMWRSG | -0.424
21) MASGRWYSNSTYGDCMGGIA | -0.321
22) RSMSRRGFLCLHR | 0.948
23) HSPYRFKSKCQRINMFCVIT | 5.71
24) RLSLNFDVRLC | 1.21
25) DMVDLCSKDMSRALFGPNMS | 5.39
26) SNNFFNGMICSLFAGGC | 7.55
27) IVSAKDILRLIYSVCGAGLG | -0.264
28) YSRTQENNAGLSYIACTGRR | 0.168
29) ISYKAWMFRGRMNSVGISRY | -0.299
30) TSRDFYRNAGIARFAYYNSP | -1.15
31) LVGKFNWCEVQKKCSRFRCR | -0.29
32) TGRFLEVREQRRDARVEMSR | 0.183
33) TDIKNRHILSNPWIRLYFLI | -1.16
34) HVNYWGRLCMKKRCNVDVNH | 5.63

----------
Entries and their amyloid nucleation score
experiment: amyloid nucleation score (Sup35N fusion, yeast selection) (log enrichment); library NNK2; higher = more nucleation; inactive = no reads after selection
Measurement kind: amyloid nucleation score

1) PSSDGIRITSDGILMSVDNG | 0.918
2) LCHKATSSFYPW | -0.808
3) PVALLAIRMNIDVVN | -0.353
4) DDMTGDHRPSFRSMIMVGVI | 0.918
5) ILVTAYTFTMVRSDEGCRKV | 3.63
6) SHCCFLG | 0.118
7) RFRWTSVSRVKGCFNKMYPS | 0.1
8) SIGVSDGNPGRAVGGGLMGH | 0.098
9) NKRMRVRVEGRLINV | 0.089
10) SARWYILRVFIFFIPRSAYK | -1.59
11) KASMCGMKVWKFFQYLIKMV | -1.1
12) GCYISLHMCLE | 3.84
13) PPHRAYGILMMNTRRTSSIT | 0.604
14) DIDKGSTEGDVMEGKLVNNV | 0.171
15) GNGWAMSVTKR | 0.571
16) NSTFLCLVGFFCLVFSLRQG | 3.77
17) DKYSWRKNGCGGWCVTTVVG | 0.573
18) NVLGQNAQPPNMDFYVTMIC | 0.508
19) TKSVVLMNSMSS | 0.072
20) SRFVLRFSRGLEGRTSSDMR | 0.294
21) REFLIYFCFQIMCCRTYGPA | 5.12
22) VSCCNLVVDLKRTILLFGGR | 7.5
23) QEALLWTLNTLKKLSGRGST | -1.44
24) EYYFSTELGGVFTLY | 1.18
25) SSPLPQSCERNRVLRTRLGF | 0.874
26) LRDKCAPCKCSRGSPLTSIC | -0.489
27) IMCQVSR | -0.171
28) LSIAYFSSAWCFYL | 6.22
29) KRFIWCFRVTLFT | -0.633
30) GTDTTIDLNSYGHYYSLCVR | 0.334
31) RLEEDGSD | 7.12
32) FIRSSIVWCC | 6.04
33) YNESVHANVYVLLILKGLES | 6.62
34) SFLRSTSRDPKGCVKMRYFT | 1.17
35) NTLITRVHHDQLPRLSDLLL | 1.28
36) VTDQVVFSEWIAADYMFDKY | 0.491
37) DGDICLLRYFFLTMILELAI | -2.02
38) EFFCAHLRADLVLKKNRVVF | -1.05
39) DLGPLFDCCSVYGGAECCIE | -0.1
40) DTPGHGNACSKIRP | -0.159
41) TTVERWVVFRKVQMRYRIRL | 5.4
42) LCGWHD | 0.733
43) ALFVYYDIQVVGITY | -1.1
44) HNCFFITRCSKVLRAYFSTL | -1.4
45) AFGKACPGMCMTKFTACTNR | 0.569
46) MGENVLGRQGVLPKGEI | 0.192
47) VHLLGDFGLASQRRNECKLL | 0.477
48) YVKSRHTNYDGRSTLL | 3.12
49) NRKFARWLLLT | -0.492
50) TRAHSED | 0.49
51) YSKTLERVDSSVD | 1.26
52) CHVCFRETARYMCVGWYYGS | -0.283
53) CHCWSELIQIFII | 5.86
54) NLFLLYEAW | -0.155
55) NLYMFIRRAPDIIFCAHVYQ | 4.35
56) YCLVTRLHR | 0.185
57) QRYCRA | 0.94
58) YDLLGHKAVFEGERVNW | 0.003
59) RLDMYGLLINWSSVCLYNNI | 0.257
60) MKYSSFINLLPTTWQHYTMN | -0.119
61) IRSNIGNSWNTLIFVYCCYT | 6.42
62) NLRLDIAFSPWPRSGYNSGS | 0.292
63) SVALSQVLEKVWESVPKELN | 0.62
64) SCFTLSFKVITLHSRLQFIW | 0.181
65) HPLVLWSIELCMMFFNSLTD | -0.565
66) LCQHREMALMLGGEPADDWG | 1.87
67) GDQIWNYGSLAETVTASTWS | 0.509
68) MPIEVILCFGG | 1.84
69) GCIIFGYLG | 1.57
70) IAHRVITMP | -0.277
71) YCKRLKQAMPHY | -0.337

----------
Some sequences, each annotated with its measured amyloid nucleation score.
assay: amyloid nucleation score (Sup35N fusion, yeast selection) (log enrichment); library NNK2; higher = more nucleation; inactive = no reads after selection
Measurement kind: amyloid nucleation score

1. ARVRVYRWWTLATTWGRVGF | 2.85
2. DGNFHNFLLCNNEMFREMDC | 2.63
3. VNRPATPFEGSQCLIIYSRV | -0.613
4. FCALWVQFRYRE | 3.89
5. LPYHCNWHMLSYLTCGYCS | 0.711
6. LFPLHFCNEHIMRLIKKLTG | 0.579
7. NNLKLCNRTMCLVYEVCVTD | -1.23
8. NTSIQQIPLMSRLGVAFVIW | -0.781

----------
experiment: amyloid nucleation score (Sup35N fusion, yeast selection) (log enrichment); library NNK3; higher = more nucleation; inactive = no reads after selection
Measurement kind: amyloid nucleation score

1) FYFDRTSVIMRLFSMWNNFG | inactive
2) CGTFNCYNGAL | 0.699
3) LFVIINPQVTWLLFRMFESH | inactive
4) LDLDVDNVSSDGKTWMGLV | inactive
5) CVMAMPSNIEV | inactive
6) NCMEINVYFTFVEMQLAELD | 2.69
7) SSDSKGFHGFGWFFWISLVT | inactive
8) MWYLTDWIDCFCLSNMNICT | 1.81
9) DSFVLSTTFLSSGTSAACLG | -1.32
10) NAMGTFSMGDI | inactive
11) SLCGLFRYAWYQFEFNDVRA | 0.977
12) TNQALTMNCHPG | inactive
13) VPLMQGD | 3.16
14) FFREYTSSRQMNICYLSFHG | inactive
15) YGVSMVVENYL | inactive
16) EHIEIRSSFEVSPHTPNPAS | inactive
17) VRDCTTDTQWERWVETLSPS | inactive

Source listed as the supplement of paper PMC12042874.
